// values below are reported pest or weed control at 125 g/ha
# Tested on: blackgrass (Alopecurus myosuroides)
# measurement description: Test A postemergence
# Type: in vivo
# measurement parameters: Alopecurus myosuroides, post-emergence, 240 h, 125 g ai/ha, postemergence; visual injury on 0 to 100 scale (0 no effect, 100 complete control), approx. 10 d; read-out: Blackgrass plant response rating

| compound | reading unit | pest or weed control at 125 g/ha |
| --- | --- | --- |
| C/C=C/N1C[C@@H](c2cccc(C(F)(F)F)c2)[C@H](C(=O)Nc2ccccc2F)C1=O (racemic) | % | 0 |
| CN1C[C@H](c2csc3ccccc23)[C@@H](C(=O)Nc2ccccc2F)C1=O | % | 20 |
| CCc1cc(CC)cc([C@H]2CNC(=O)[C@@H]2C(=O)Nc2cccc(F)c2F)c1 | % | 40 |
| Cc1cc([C@H]2CN(C)C(=O)[C@@H]2C(=O)Nc2ccccc2C(F)(F)F)ccc1Br | % | 30 |
| CN1CC(c2cccc(C(F)(F)F)c2)C(C(=O)Nc2ccccc2C(C)(C)O)C1=O (centres unmarked) | % | 0 |
| CC(C)=CC1CNC(=O)C1C(=O)Nc1ccccc1S(C)(=O)=O (centres unmarked) | % | 0 |
| CN1C[C@H](c2ccc(F)c(Oc3ccccc3)c2)[C@@H](C(=O)Nc2ccccc2F)C1=O | % | 30 |
| CN1C[C@H](c2csc3c2CCCC3)[C@@H](C(=O)Nc2ccccc2S(C)(=O)=O)C1=O | % | 0 |

* * *

# Test system: barnyardgrass (Echinochloa crus-galli)
# measurement description: Test G Post-Emergence Protocol
# Format: in vivo
# measurement parameters: Echinochloa crus-galli, post-emergence, 312 h, 15.625 g ai/ha, evaluated after 13 days (100=total damage to plant; 0=no damage to plant), read-out: Barnyardgrass damage rating
Listed below: pest or weed control at 15.625 g/ha values for each entry.

| molecule | pest or weed control at 15.625 g/ha / % |
| --- | --- |
| C=Cc1cccc([C@@H]2CN(C)C(=O)[C@H]2C(=O)Nc2cccc(F)c2F)c1 (racemic) | 10 |
| CC(C)Oc1cc(OC(F)(F)F)cc(C2CN(C)C(=O)C2C(=O)Nc2cccc(F)c2F)c1 (stereo not drawn) | 0 |
| CN1C[C@@H](c2ccc(Cl)nc2)[C@H](C(=O)Nc2cccc(F)c2F)C1=O (racemic) | 0 |
| CN1C[C@H](c2ccc(Cl)cc2)[C@@H](C(=O)Nc2cnccc2C(F)(F)F)C1=O | 0 |
| CN1C[C@@H](c2ccc(C(F)(F)F)cc2)[C@H](C(=O)Nc2cc[nH]n2)C1=O (racemic) | 0 |
| Cc1cc(C2CN(C)C(=O)C2C(=O)Nc2cccc(F)c2F)cc(C(F)(F)F)c1 (stereo not drawn) | 30 |
| CN1C[C@H](c2ccc(F)c(C#N)c2)[C@@H](C(=O)Nc2ccccc2S(C)(=O)=O)C1=O (racemic) | 0 |
| Cc1cc(C(F)(F)F)ccc1[C@@H]1CN(C)C(=O)[C@H]1C(=O)Nc1ccccc1F (racemic) | 20 |
| CN1C[C@@H](c2ccc(C(F)(F)F)cc2)[C@H](C(=O)Nc2cn[nH]c2)C1=O (racemic) | 0 |
| Cc1cnc(NC(=O)[C@@H]2C(=O)N(C)C[C@H]2c2ccc(C(F)(F)F)cc2)s1 (racemic) | 0 |
| COc1c(Cl)ccc([C@H]2CNC(=O)[C@@H]2C(=O)Nc2cccc(F)n2)c1F (racemic) | 10 |
| C=CCc1c(Cl)cccc1NC(=O)[C@H]1C(=O)N(C)C[C@H]1c1ccc(C(F)(F)F)cc1 (racemic) | 0 |
| COc1cc(NC(=O)[C@@H]2C(=O)N(C)C[C@H]2c2ccc(C(F)(F)F)cc2)ccn1 (racemic) | 0 |
| CN1C[C@@H](c2ccc(C(F)(F)F)cc2)[C@H](C(=O)Nc2cnccn2)C1=O (racemic) | 0 |
| CC(C)c1cc([C@H]2CN(C)C(=O)[C@@H]2C(=O)Nc2cccc(F)c2F)cnn1 (racemic) | 0 |

* * *

Parameter: pest or weed control at 250 g/ha. Scope: all listed entries.
# Test system: barnyardgrass (Echinochloa crus-galli)
# measurement description: Test G Pre-Emergence Protocol
# Assay type: in vivo
# measurement parameters: Echinochloa crus-galli, pre-emergence, 312 h, 250 g ai/ha, evaluated after 13 days, read-out: Barnyardgrass damage rating (100=total damage to plant; 0=no damage to plant)
assay readout: pest or weed control at 250 g/ha

| compound | reported |
| --- | --- |
| CN1C[C@H](c2ccc(C(F)(F)F)cc2)[C@@H](C(=O)Nc2ccccc2C(C)(C)C)C1=O (racemic) | 0% |
| CN1C[C@H](c2ccc(C(F)(F)F)cc2)[C@@H](C(=O)Nc2cnccc2C#N)C1=O (racemic) | 0% |
| CN1C[C@@H](c2ccc(C(F)(F)F)cc2)[C@H](C(=O)Nc2nc[nH]n2)C1=O (racemic) | 0% |
| COC(=O)c1sccc1NC(=O)[C@@H]1C(=O)N(C)C[C@H]1c1ccc(C(F)(F)F)cc1 (racemic) | 0% |
| CN1C[C@H](c2cccc(C(F)F)c2)[C@@H](C(=O)Nc2ccccc2F)C1=O (racemic) | 90% |
| CN1CC(c2cc(F)c(Cl)c(F)c2)C(C(=O)Nc2cccc(F)c2F)C1=O (stereo not drawn) | 80% |
| COc1cc(C2CN(C)C(=O)C2C(=O)Nc2cccc(F)c2F)cc(Cl)c1F (stereo not drawn) | 70% |
| CN1C[C@H](c2ccc(Cl)cc2)[C@@H](C(=O)Nc2cccnc2F)C1=O | 90% |
| COc1cc(NC(=O)[C@@H]2C(=O)N(C)C[C@H]2c2ccc(C(F)(F)F)cc2)ccn1 (racemic) | 0% |
| CN1C[C@H](c2ccc(C(F)F)cc2)[C@@H](C(=O)Nc2cnccc2C(F)(F)F)C1=O (racemic) | 80% |
| CN1C[C@@H](c2ccc(C(F)(F)F)cc2)[C@H](C(=O)Nc2ccccn2)C1=O (racemic) | 70% |
| CN1CC(c2ccc(F)c(OCC(F)(F)F)c2)C(C(=O)Nc2cccc(F)c2F)C1=O (stereo not drawn) | 90% |
| Cc1nc(Cl)ccc1NC(=O)[C@H]1C(=O)N(C)C[C@@H]1c1ccc(C(F)(F)F)cc1 (racemic) | 0% |
| CN1C[C@@H](c2ccc(C(F)(F)F)cc2)[C@H](C(=O)Nc2nn[nH]n2)C1=O (racemic) | 0% |
| C=CCc1c(Cl)cccc1NC(=O)[C@H]1C(=O)N(C)C[C@H]1c1ccc(C(F)(F)F)cc1 (racemic) | 40% |

* * *

Entries and their plant injury at 125 g/ha values follow.
# Test system: corn (Zea mays)
# measurement description: Test A postemergence
# Assay type: in vivo
# measurement parameters: Zea mays, post-emergence, 240 h, 125 g ai/ha, Postemergence, visual rating about 10 d after treatment; read-out: Corn plant response rating (0 to 100 scale)

| molecule | reading unit | plant injury at 125 g/ha |
| --- | --- | --- |
| CO[C@]1(C(=O)Nc2cccc(F)c2F)C(=O)N(C)C[C@@H]1c1ccc(C(F)(F)F)cc1 (racemic) [Compound 1334] | % | 0 |
| CN1C[C@H](c2ccc(C(F)(F)F)cc2)[C@@H](C(=O)Nc2ccccc2-n2cncn2)C1=O [Compound 1288] | % | 0 |
| CN1C[C@H](c2ccc(C(F)F)cc2)[C@@H](C(=O)Nc2cccc(F)c2F)C1=O [Compound 1383] | % | 80 |
| CN1C[C@H](c2ccc(C(F)(F)F)cc2)[C@@H](C(=O)Nc2ccc(F)nc2F)C1=O [Compound 1347] | % | 30 |
| CN1C[C@H](c2cccc(C#N)c2)[C@@H](C(=O)Nc2ccc(F)c(F)c2F)C1=O [Compound 1287] | % | 0 |
| CN1C[C@H](c2cccc(C(F)(F)F)c2)[C@@H](C(=O)Nc2ccccc2-n2cccn2)C1=O [Compound 1284] | % | 0 |
| Cc1c(F)ccc([C@H]2CNC(=O)[C@@H]2C(=O)Nc2ccccc2F)c1F [Compound 1326] | % | 0 |
| O=C1NC[C@H](c2csc3c2CCOC3)[C@H]1C(=O)Nc1cccc(F)c1F [Compound 1279] | % | 0 |
| O=C(Nc1ccccc1F)[C@H]1C(=O)N(CC(F)F)C[C@@H]1c1cccc(C(F)(F)F)c1 [Compound 1295] | % | 0 |
| CN1C[C@H](c2cccc(C(F)(F)F)c2)[C@@H](C(=O)Nc2ccccc2-n2cncn2)C1=O [Compound 1289] | % | 0 |
| CN1CC[C@H](c2cccc(C(F)(F)F)c2)[C@@H](C(=O)Nc2ccccc2F)C1=O [Compound 1331] | % | 20 |
| O=C1NCC(c2ccccc2)C1C(=O)Nc1cccnc1 (centres unmarked) [Compound 1356] | % | 0 |
| Cc1c(F)cccc1NC(=O)[C@H]1C(=O)N(C)C[C@@H]1c1ccc2c(c1)C(F)(F)C(F)(F)O2 [Compound 1272] | % | 50 |
| CN1C[C@H](c2cccc(C#N)c2)[C@@H](C(=O)Nc2ccccc2F)C1=O [Compound 1285] | % | 0 |

Cited source: patent US12077503B2
